I'd appreciate it if you could supply % Inhibition values for the items below.
Test system: Staphylococcus epidermitis
Assay: Bacterial growth inhibition screen in LB media (absorbance 595 nm), percent inhibition
Conditions: S. epidermitis; concentration screened 10 uM
Please don't drop the unit; write it after the number.

These recorded examples may help you get a feel for the data.
C[N+](C)(C)c1cccc(C(=O)OCCCCn2ccc3cc(OCc4ccccc4)ccc32)c1 [Compound 805]
50.87%
O=C(OCCCCCCCCc1cc2cc([N+](=O)[O-])ccc2[nH]1)c1ccccc1-c1ccccc1 [Compound 729]
8.24%
COC(=O)c1ccc2c(ccn2CCC[n+]2cccc(C(=O)OC)c2)c1 [Compound 171]
15.33%

We next turn to a different compound, shown below.
Input line: Given the entry O=C(c1ccccc1)c1ccc2[nH]c(CCCC[n+]3ccccc3)cc2c1 [Compound 355] , what % Inhibition was observed with Staphylococcus epidermitis?
Output line: 5.78%

Attribution: patent US6727237B2
